Attribution: PubChem BioAssay AID1745844

# Tested on: rodent lifetime carcinogenesis bioassay, tumor incidence TD50
# experimental_protocol: carcinogenic potency in animals, long-term in vivo studies, CPDB compilation (AID 1745844)
# condition_summary: mouse; strain B6C3F1; females; inhaled; site: Harderian gland + lung; lesion: papillary cystadenoma, NOS + alveolar/bronchiolar adenoma + alveolar/bronchiolar carcinoma; dosed 102 weeks; study length 104 weeks
measure: TD50 (mg/kg/day)
Reply with just the number (in mg/kg/day).

Field TD50 (entry C1CO1 ) reads 45.8

###

# System: rodent lifetime carcinogenesis bioassay, tumor incidence TD50
# experimental_protocol: carcinogenic potency in animals, long-term in vivo studies, CPDB compilation (AID 1745844)
# condition_summary: mouse; strain CDF1; females; in feed; site: lung; lesion: several types; types named in the paper; dosed 97 weeks; study length 97 weeks
measure: TD50 (mg/kg/day)
// units = mg/kg/day; emit number, no label

Field TD50 (rodent lifetime carcinogenesis bioassay, tumor incidence TD50), entry Nc1ccc2c(n1)[nH]c1ccccc12 : 1150
